Data credit: ChEMBL document CHEMBL4627395

system: A549; assay: Cytotoxicity against human A549 cells incubated for 48 hrs by MTT assay; type: functional, cell-based; settings: A549, 48 h
Counter-ions that a name gives are not always drawn.
# IC50 per entry

- MOLECULE: "COc1cccc2c1C(=O)c1c(O)c3c(c(O)c1C2=O)C[C@@](O)(C(=O)CO)C[C@@H]3O[C@H]1C[C@H](N)[C@H](O)[C@H](C)O1 [DOXORUBICIN HYDROCHLORIDE]"
  IC50: "5 µM"
- MOLECULE: "COc1cc(O)c2c(c1)C(=O)C1=C(C2=O)[C@@](C)(OC)OCC1"
  IC50: "28.2 µM"
- MOLECULE: "COc1cc(O)c2c(c1)C(=O)C1=C(COC(C)(O)C1)C2=O (stereo unspecified)"
  IC50: "> 40 µM"
- MOLECULE: "COc1cc(O)c2c(c1)[C@@H](O)[C@@H]1C[C@H](C)OC[C@H]1C2=O"
  IC50: "> 40 µM"
- MOLECULE: "COc1cc(O)c2c(c1)C(=O)C1=C(C2=O)[C@H](OC[C@@H]2C(=O)CC[C@@H]2C)OC(C)=C1"
  IC50: "1.3 µM"
- MOLECULE: "COc1cc(O)c2c(c1)C(=O)C1=C(C2=O)C(OC)OC(C)=C1 (stereo unspecified) [ASCOMYCONE A]"
  IC50: "> 40 µM"
- MOLECULE: "COc1cc(O)c2c(c1)C(=O)C1=C(C2=O)[C@H](OC[C@@H]2C(=O)CC[C@H]2C)OC(C)=C1"
  IC50: "1.3 µM"
- MOLECULE: "COc1cc(O)c2c(c1)C(=O)C1=C(C2=O)[C@](C)(OC)OCC1"
  IC50: "28.2 µM"
- MOLECULE: "COc1cc(O)c2c(c1)C(=O)c1c(coc1[C@H](C)O)C2=O"
  IC50: "> 40 µM"
- MOLECULE: "COC1=CC(=O)[C@H](O)[C@H](C)C12Oc1cccc3cccc(c13)O2"
  IC50: "> 40 µM"
- MOLECULE: "COc1cc(O)c2c(c1)[C@H](O)[C@H](C)CC2=O"
  IC50: "> 40 µM"
